molecular target: Protein kinase C (PKC); assay: Inhibition of protein kinase C (PKC) from rat brain homogenate
Test Readout: IC50

CCCCSCc1ccc2c(c1)c1c3c(c4c5cc(CSCCCC)ccc5n5c4c1n2[C@H]1C[C@](O)(C(=O)OC)[C@]5(C)O1)CNC3=O has a reported IC50 of > 7.6 µM

CCCSCc1ccc2c(c1)c1c3c(c4c5cc(CSCCC)ccc5n5c4c1n2[C@H]1C[C@](O)(C(=O)OC)[C@]5(C)O1)CNC3=O has a reported IC50 of > 10 µM

CCSCc1ccc2c(c1)c1c3c(c4c5cc(CSCC)ccc5n5c4c1n2[C@H]1C[C@](O)(C(=O)OC)[C@]5(C)O1)CNC3=O has a reported IC50 of > 10 µM

C=CCSCc1ccc2c(c1)c1c3c(c4c5cc(CSCC=C)ccc5n5c4c1n2[C@H]1C[C@](O)(C(=O)OC)[C@]5(C)O1)CNC3=O has a reported IC50 of > 10 µM
